Entries and their measured growth inhibition follow.
Assay: NCI Yeast Anticancer Drug Screen. Data for the rad50EPP+ strain (AID 151);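 also: 0% = growth of vehicle-treated control cultures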
Conditions: S. cerevisiae rad50 mutant strain, at 1.2 µM, hits give high values
Protocol: Growth inhibition of yeast strains with defined genetic alterations is measured as a screen for potential anti-cancer activity. Selected strains with alterations in DNA damage repair or cell cycle control were exposed to compounds and growth inhibition was measured relative to vehicle treated controls. The strain used in this assay is rad50EPP+
About 79,000 compounds went through this panel and 15% of them were active in at least one assay; those are over-represented in the sample as a whole.
# value in %; strip the unit string

Recorded growth inhibition, per entry:
molecule	measurement unit	growth inhibition
COc1ccc(/C=C2\CCc3ccccc3C2=O)cc1OC	%	-24
c1cc2ccc3cc4ncccc4c4ccc(c1)c2c34	%	8
CC1C=CN(N(C)C)C2=C1C(=O)c1cnccc1C2=O (stereo not drawn)	%	-4
O=c1[nH]c(=O)n(CCCO)cc1F	%	-14
COc1ccc(C(=O)NCCN(C)C)c2nc3ccccc3cc12	%	13

Lab note: measured growth inhibition of O=C1C(C(O)(C(F)(F)F)C(F)(F)F)CCC1C(O)(C(F)(F)F)C(F)(F)F (stereo not drawn) was -3

Reported growth inhibition for Cc1ccc(SSc2ccc(C)cc2[N+](=O)[O-])c([N+](=O)[O-])c1 was 7

The molecule listed as O=C1OC(/C=C/c2ccccc2)Sc2ccccc21 (stereo not drawn) has a reported growth inhibition of 5

Form field growth inhibition, entry O=C(Cc1ccccc1)c1ccc(O)cc1 : 11

// growth inhibition value for Nc1ccc2cc(Br)c3ccccc3c2c1 : 3

// Cc1ccc(S(=O)(=O)N/N=C/c2c(O)ccc3ccccc23)cc1 : growth inhibition value = -6

growth inhibition measured on CCCCCCC(CCl)c1sc(-c2csc(CCNC(=O)OC(C)(C)C)n2)nc1C(=O)OC (stereo not drawn) = -1

Please fill in: growth inhibition reported for CN(C)c1ccc(C(c2ccc(Cl)cc2)c2ccc(N(C)C)cc2)cc1 = 3

For record CCOc1ccccc1N1C(=O)CC(Sc2ccccc2N)C1=O (stereo not drawn) the listed growth inhibition is 19

Lab book: growth inhibition of CC(=O)c1ccc(NCN2C(=O)c3ccccc3C2=O)cc1 noted as -17

The molecule listed as Cc1cc(N(CCOS(C)(=O)=O)CCOS(C)(=O)=O)ccc1C=O has a reported growth inhibition of 15

// O=C1c2ccccc2-c2ccc(NC(=O)C3CCCCC3C(=O)O)cc21 (stereo not drawn) : growth inhibition value = 4

Looking up CCOc1nc(OCC)nc(-c2cccn2-c2ccccc2)n1 , I found its growth inhibition recorded as 1

Record O=[N+]([O-])C(=C(NCc1ccccc1)NCc1ccccc1)C(Cl)=C(Cl)Cl . Reported growth inhibition: 3

Looking up CC[N+]1(C)CCC(O)(/C=C/c2ccc(Cl)c(Cl)c2)C(C(=O)/C=C/c2ccc(Cl)c(Cl)c2)C1 (stereo not drawn) , I found its growth inhibition recorded as 12

So, O=[N+]([O-])c1cccc2nc3ccccc3c(NCCC[N+]3([O-])CCOCC3)c12 ? Its growth inhibition was 6

So, CCOC(=O)C1=C(C)NC(C)=C(C(=O)OCC)C1c1ccc(Cl)cc1 ? Its growth inhibition was 6

----------
experiment: NCI Yeast Anticancer Drug Screen. Data for the rad18 strain (AID 177); details: S. cerevisiae rad18 mutant growth inhibition; at 3.7 µM; hits give high values
Compounds without any hit were thinned out: in the full panel of roughly 79,000, 15% have a hit.
Measured growth inhibition, listed per entry.
A number alone suffices; assume %.

The reported growth inhibition of the compound CCC(C)C(=O)OCC(=O)c1ccc(-c2ccccc2)cc1 (configuration not stated) was 2

NCC(O)CSCc1ccc(Cl)cc1 (configuration not stated) has a reported growth inhibition of -1

Per the record, O=S(=O)(Oc1c(Cl)cc(Cl)cc1Cl)c1ccccc1 has growth inhibition of 4

Value of growth inhibition reported for the compound Cc1ccc(S(=O)(=O)N/N=C/c2c(O)ccc3ccccc23)cc1 is 17

Short answer for CC(C)(C(=O)NN)c1ccccc1 : growth inhibition was 8

Item: O=C(Nn1c(-c2ccccc2)nc2ccccc2c1=O)c1ccc(Cl)cc1 | growth inhibition: -2

Measured growth inhibition, CC(C)OC(CCC#N)c1ccc(Cl)cc1 (configuration not stated) : -32

Reference for the values: PubChem BioAssay (NCI)
